- target_under_test: α-chymotrypsin (Bos taurus)
Bridge positions count the residues as written; N and C are the ends. Peptide text beside a SMILES is read from it.
molecules and their reported IC50

Some solved cases for reference:
>  <molecule>
NC(=O)CC[C@H](NC(=O)[C@@H]1CSSC[C@H](NC(=O)[C@@H](N)Cc2ccccc2)C(=O)N[C@@H](CC(N)=O)C(=O)N[C@@H](Cc2ccc(O)cc2)C(=O)N[C@@H](CO)C(=O)N[C@@H](CC(N)=O)C(=O)N2CCC[C@H]2C(=O)N2CCC[C@H]2C(=O)N[C@@H](CCC(N)=O)C(=O)N1)C(=O)O [CH46] (H-FCNYSNPPQCQ-OH; disulfide 2-10; N-terminus and C-terminus assumed)

>  <IC50>
> 50 µM

$$$$
>  <molecule>
CC[C@H](C)[C@@H]1NC(=O)[C@H](CO)NC(=O)[C@H](Cc2ccc(O)cc2)NC(=O)[C@H]([C@@H](C)O)NC(=O)[C@H](C)NC(=O)[C@H](CO)NC(=O)[C@@H](N)CSSC[C@@H](C(=O)N[C@@H](Cc2ccc(O)cc2)C(=O)NCC(=O)O)NC(=O)[C@H](CCC(N)=O)NC(=O)[C@@H]2CCCN2C(=O)[C@@H]2CCCN2C1=O [CH16] (H-CSATYSIPPQCYG-OH; disulfide 1-11; N-terminus and C-terminus assumed)

>  <IC50>
> 50 µM

$$$$

Now for a further molecule.
# value of IC50, α-chymotrypsin (Bos taurus), item CSCC[C@@H]1NC(=O)CNC(=O)[C@@H]2CCCN2C(=O)[C@H](CC(=O)O)NC(=O)[C@H](CO)NC(=O)[C@H](Cc2ccccc2)NC(=O)[C@H]([C@@H](C)O)NC(=O)[C@@H](NC(=O)[C@@H](N)CCSC)CSSC[C@@H](C(=O)N[C@@H](CO)C(=O)O)NC1=O [CH50] (H-MCTFSDPGMCS-OH; disulfide 2-10; N-terminus and C-terminus assumed) = > 50 µM
